target: MpIBP_RIII1-4 (Marinomonas primoryensis ice-binding protein, Region III domains 1-4), truncated construct ending at N507 (Marinomonas primoryensis); assay: fluorescence polarisation
Where no end group is shown, it is not given here. [ ]: non-standard residue; d: D form. The star is where a group is joined. FITC = O=C1OC2(c3ccc(O)cc3Oc3cc(O)ccc32)c2ccc(NC(=S)*)cc21; pT = C[C@@H](OP(=O)(O)O)[C@H](N)C(=O)O; pS = N[C@@H](COP(=O)(O)O)C(=O)O; Aβ = not defined here

{"BINDER": "{FITC}-IKARAS[pS]SPVILVGTHLD-OH [FITC-IKARAS(pS)…]", "UNIT_STRING": "nM", "EC50": 2700}
{"BINDER": "{FITC}-AGYTS [FITC-AGYTS]", "UNIT_STRING": "nM", "EC50": 30}
{"BINDER": "{FITC}-AGCTD [FITC-AGCTD]", "UNIT_STRING": "nM", "EC50": 23}
{"BINDER": "{FITC}-AGAGF [FITC-AGAGF]", "UNIT_STRING": "nM", "EC50": 7200}
{"BINDER": "{FITC}-AGWTD [FITC-AGWTD]", "UNIT_STRING": "nM", "EC50": 23}
{"BINDER": "{FITC}-AGAGI [FITC-AGAGI]", "UNIT_STRING": "nM", "EC50": 4400}
{"BINDER": "{FITC-Aβ}-DSTPD (reading uncertain; also: printed as FITC-AβDSTPD) [FITC-AβDSTPD]", "UNIT_STRING": "nM", "EC50": 27000}
{"BINDER": "{FITC}-AGAGY [FITC-AGAGY]", "UNIT_STRING": "nM", "EC50": 4600}
{"BINDER": "{FITC-Aβ}-DSTD (reading uncertain; also: printed as FITC-AβDSTD) [FITC-AβDSTD]", "UNIT_STRING": "nM", "EC50": 110}
{"BINDER": "{FITC}-AGAGD [FITC-AGAGD]", "UNIT_STRING": "nM", "EC50": 3200}
{"BINDER": "{FITC-Aβ}-GPDSD (reading uncertain; also: printed as FITC-AβGPDSD) [FITC-AβGPDSD]", "UNIT_STRING": "nM", "EC50": 160}
{"BINDER": "{FITC}-RHKKLMFK[pT]EGPDSD-OH [FITC-RHKKLMFK(pT)EGPDSD]", "UNIT_STRING": "nM", "EC50": 690}
{"BINDER": "{FITC}-AGYTD [FITC-AGYTD]", "UNIT_STRING": "nM", "EC50": 29}
{"BINDER": "{FITC-Aβ}-GPDSN (reading uncertain; also: printed as FITC-AβGPDSN) [FITC-AβGPDSN]", "UNIT_STRING": "nM", "EC50": 270}
{"BINDER": "{FITC}-AGATD [FITC-AGATD]", "UNIT_STRING": "nM", "EC50": 72}

# credit: paper doi:10.1101/2020.11.18.389114
